Molecular target: T1, human IgG
T1 construct: ELISA coating control
Test: ELISA, human IgG coated 1 ug/mL
readout_name: OD450 (OD450)

Worked examples follow.
Give OD450 for the following binder: NBL507-A2L1-P1R2-1C1-(273)-PME207-SEQF_E11 (VHH, purified VHH) VHH: QVQLVESGGGLVHPGGSLRLDCAVSERIASFNVMGWYRQAPGQQREVVATITSVGRTYYADSVKGRFTIAKDNDKNTYLQMNSLKPEDTAVYYCKAVIVGTYDTEYWGQGTLVTVSS
0.03

Give OD450 for the following binder: NBL507-A2L1-P1R2-1H1-(275)-PME207-SEQF_G11 (VHH, purified VHH) VHH: QVQLVESGGGLVHPGGSLRLACAASERILSFNVMGWYRQAPGQQREVVATITSVGRTYYADSVKGRFTIFKDNGKNTYLQMSSLKPEDTAVYYCKAVTVGDVDTEYWGQGTQVTVSS
0.04

P: NBL507-A1L1-P1R2-1B6-(31)-PME207-SEQF_G04 (VHH, purified VHH) VHH: QVQLVESGGGLVQPGGSLRLSCAASGFTFSPSAMSWARQAPGKGLEWVSGIYSDGSTYYRDSVKGRFTISRDNARNMVYLQMNSLKPEDTAVYYCALGAMREGVYSDLLGQGTQVTVSS
Q: NBL507-A1L1-P1R2-1B8-(44)-PME207-SEQF_D06 (VHH, purified VHH) VHH: QVQLVESGGGLVQPEGSLRLSCAASGSIFSIYAMGWYRQAPGKQRGLVAAITSGGDTFYADSVKGRFTISRDNARNTVYLQMNNLKSEDTAVYDCNGAPWGDHAPLVASWGQGTQVTVSS
I would appreciate it if you could say which entry, P or Q , has the lower OD450 value. Kindly give the label for the entry you pick.
Q
